Target: AmpKa1 (Homo sapiens, UniProt Q13131)
Construct: purchased Carna Biosciences
Sequence (Q13131 whole entry): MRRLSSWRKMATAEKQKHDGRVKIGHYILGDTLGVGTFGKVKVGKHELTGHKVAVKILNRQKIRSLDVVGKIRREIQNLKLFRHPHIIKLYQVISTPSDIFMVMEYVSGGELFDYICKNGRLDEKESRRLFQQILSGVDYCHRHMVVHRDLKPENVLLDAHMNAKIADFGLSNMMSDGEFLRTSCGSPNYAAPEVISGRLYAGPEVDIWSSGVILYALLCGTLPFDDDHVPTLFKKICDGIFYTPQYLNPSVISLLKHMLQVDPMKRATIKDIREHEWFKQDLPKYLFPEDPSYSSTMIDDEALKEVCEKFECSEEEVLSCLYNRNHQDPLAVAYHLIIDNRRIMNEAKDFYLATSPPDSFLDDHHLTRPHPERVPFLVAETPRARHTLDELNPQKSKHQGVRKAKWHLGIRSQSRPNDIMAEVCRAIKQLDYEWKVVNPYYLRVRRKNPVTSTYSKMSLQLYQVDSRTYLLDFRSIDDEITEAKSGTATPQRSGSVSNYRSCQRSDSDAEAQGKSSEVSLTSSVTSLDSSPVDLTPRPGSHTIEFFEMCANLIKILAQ
Sequence (Q9Y478 whole entry partner): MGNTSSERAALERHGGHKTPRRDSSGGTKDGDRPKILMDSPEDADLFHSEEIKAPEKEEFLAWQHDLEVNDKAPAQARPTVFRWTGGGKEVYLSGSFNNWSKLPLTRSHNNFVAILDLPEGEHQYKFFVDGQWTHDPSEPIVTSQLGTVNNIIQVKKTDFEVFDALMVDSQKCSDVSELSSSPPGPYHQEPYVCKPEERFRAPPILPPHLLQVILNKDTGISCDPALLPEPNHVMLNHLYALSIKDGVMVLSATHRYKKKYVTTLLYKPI
Sequence (P54619 whole entry partner): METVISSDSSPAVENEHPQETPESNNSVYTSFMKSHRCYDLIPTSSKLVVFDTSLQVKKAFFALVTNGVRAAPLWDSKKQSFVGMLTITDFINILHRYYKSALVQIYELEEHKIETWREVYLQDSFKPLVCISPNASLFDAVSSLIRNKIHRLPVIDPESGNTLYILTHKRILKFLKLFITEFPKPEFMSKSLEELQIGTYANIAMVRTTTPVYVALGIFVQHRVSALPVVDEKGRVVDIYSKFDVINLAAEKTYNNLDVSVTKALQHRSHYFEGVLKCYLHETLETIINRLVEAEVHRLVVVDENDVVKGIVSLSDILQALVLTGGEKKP
Experiment: LabChip (Caliper) kinase assay, AmpKa1
Assay type: biochemical
Details: compound at 10 nM, read-out: remaining kinase activity (in %) / percentage of inhibition
Description: The analysis of kinase activity described here was performed using LabChip (Caliper Life Sciences), specifically the Caliper LC3000 and the EZ Reader II instruments. The kinase assay used measures the conversion of a fluorescent peptide (substrate) to a phosphorylated product. The reaction mixture, in a microplate well, is introduced by a capillary in a chip where the non-phosphorylated substrate and the phosphorylated product are separated by fluorescence induced by laser. […]

[
  {
    "MOLECULE": "C[C@@H]1O[C@@H](n2c3ccccc3c3c4c(c5c6ccccc6[nH]c5c32)CNC4=O)C[C@H](O)[C@H]1O [formula (XIII), N^13-1′-β-L-olivosyl-k252c]",
    "MEASURE_UNIT": "%",
    "inhibition at 0.01 µM": -3
  },
  {
    "MOLECULE": "C[C@@H]1O[C@@H](n2c3ccccc3c3c4c(c5c6ccccc6[nH]c5c32)C(=O)NC4=O)C[C@H](O)[C@H]1O",
    "MEASURE_UNIT": "%",
    "inhibition at 0.01 µM": 3
  },
  {
    "MOLECULE": "C[C@H]1O[C@@H](n2c3ccccc3c3c4c(c5c6ccccc6[nH]c5c32)C(=O)NC4=O)C[C@@H](O)[C@@H]1O",
    "MEASURE_UNIT": "%",
    "inhibition at 0.01 µM": 5
  },
  {
    "MOLECULE": "C[C@@H]1O[C@@H](n2c3ccccc3c3c4c(c5c6ccccc6[nH]c5c32)CNC4=O)[C@H](O)[C@H](O)[C@H]1O [formula (XII), N^13-1′-β-L-rhamnosyl-k252c]",
    "MEASURE_UNIT": "%",
    "inhibition at 0.01 µM": 1
  },
  {
    "MOLECULE": "C[C@H]1O[C@@H](n2c3ccccc3c3c4c(c5c6ccccc6[nH]c5c32)CNC4=O)C[C@@H](O)[C@@H]1O [formula (XV), N^13-1′-β-D-olivosyl-k252c]",
    "MEASURE_UNIT": "%",
    "inhibition at 0.01 µM": -3
  },
  {
    "MOLECULE": "C[C@@H]1O[C@@H](n2c3ccccc3c3c4c(c5c6ccccc6[nH]c5c32)CNC4=O)C[C@@H](O)[C@H]1O [formula (XIV), N^13-1′-β-L-digitoxosyl-k252c]",
    "MEASURE_UNIT": "%",
    "inhibition at 0.01 µM": 2
  },
  {
    "MOLECULE": "C[C@@H]1O[C@@H](n2c3ccccc3c3c4c(c5c6ccccc6[nH]c5c32)C(=O)NC4=O)C[C@@H](O)[C@H]1O",
    "MEASURE_UNIT": "%",
    "inhibition at 0.01 µM": 8
  },
  {
    "MOLECULE": "C[C@@H]1O[C@@H](n2c3ccccc3c3c4c(c5c6ccccc6[nH]c5c32)C(=O)NC4=O)[C@H](O)[C@H](O)[C@H]1O",
    "MEASURE_UNIT": "%",
    "inhibition at 0.01 µM": 1
  }
]

---

biological target: FGFR1 (Homo sapiens); construct: purchased Upstate; assay: LabChip (Caliper) kinase assay, FGFR1; type: biochemical; conditions: compound at 10 nM, read-out: remaining kinase activity (in %) / percentage of inhibition
Sequence (P11362 22-822, species assumed): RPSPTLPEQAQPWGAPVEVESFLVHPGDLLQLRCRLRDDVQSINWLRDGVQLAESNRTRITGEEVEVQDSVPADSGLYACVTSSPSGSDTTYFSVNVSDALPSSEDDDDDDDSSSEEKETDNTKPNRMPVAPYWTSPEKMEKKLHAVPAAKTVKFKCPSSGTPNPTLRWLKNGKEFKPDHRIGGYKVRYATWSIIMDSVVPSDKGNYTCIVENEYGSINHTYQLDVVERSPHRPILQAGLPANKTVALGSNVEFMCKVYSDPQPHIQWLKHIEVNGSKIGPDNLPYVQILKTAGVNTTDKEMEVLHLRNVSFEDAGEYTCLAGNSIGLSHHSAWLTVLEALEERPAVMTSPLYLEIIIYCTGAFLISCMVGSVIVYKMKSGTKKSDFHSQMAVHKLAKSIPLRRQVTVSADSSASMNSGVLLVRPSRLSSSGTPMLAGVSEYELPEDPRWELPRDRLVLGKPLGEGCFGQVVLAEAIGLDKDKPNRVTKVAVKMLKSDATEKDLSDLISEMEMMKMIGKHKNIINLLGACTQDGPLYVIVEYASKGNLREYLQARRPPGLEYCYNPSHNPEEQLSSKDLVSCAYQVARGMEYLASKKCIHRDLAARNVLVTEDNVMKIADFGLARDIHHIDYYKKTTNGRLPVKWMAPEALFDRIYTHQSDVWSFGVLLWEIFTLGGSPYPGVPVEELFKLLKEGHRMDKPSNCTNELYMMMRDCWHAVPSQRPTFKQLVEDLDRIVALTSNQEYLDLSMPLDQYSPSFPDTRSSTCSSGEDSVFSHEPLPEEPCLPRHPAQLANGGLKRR
inhibition at 0.01 µM reference

[
  {
    "COMPOUND": "C[C@@H]1O[C@@H](n2c3ccccc3c3c4c(c5c6ccccc6[nH]c5c32)CNC4=O)C[C@H](O)[C@H]1O [formula (XIII), N^13-1′-β-L-olivosyl-k252c]",
    "MEASURE_UNIT": "%",
    "inhibition at 0.01 µM": -1
  },
  {
    "COMPOUND": "C[C@@H]1O[C@@H](n2c3ccccc3c3c4c(c5c6ccccc6[nH]c5c32)C(=O)NC4=O)C[C@@H](O)[C@H]1O",
    "MEASURE_UNIT": "%",
    "inhibition at 0.01 µM": 7
  },
  {
    "COMPOUND": "C[C@H]1O[C@@H](n2c3ccccc3c3c4c(c5c6ccccc6[nH]c5c32)CNC4=O)C[C@@H](O)[C@@H]1O [formula (XV), N^13-1′-β-D-olivosyl-k252c]",
    "MEASURE_UNIT": "%",
    "inhibition at 0.01 µM": -2
  }
]

---

inhibition at 0.1 µM reference
Target: FLT3 (Homo sapiens)
Construct: purchased Upstate
Sequence (P36888 27-993, species assumed): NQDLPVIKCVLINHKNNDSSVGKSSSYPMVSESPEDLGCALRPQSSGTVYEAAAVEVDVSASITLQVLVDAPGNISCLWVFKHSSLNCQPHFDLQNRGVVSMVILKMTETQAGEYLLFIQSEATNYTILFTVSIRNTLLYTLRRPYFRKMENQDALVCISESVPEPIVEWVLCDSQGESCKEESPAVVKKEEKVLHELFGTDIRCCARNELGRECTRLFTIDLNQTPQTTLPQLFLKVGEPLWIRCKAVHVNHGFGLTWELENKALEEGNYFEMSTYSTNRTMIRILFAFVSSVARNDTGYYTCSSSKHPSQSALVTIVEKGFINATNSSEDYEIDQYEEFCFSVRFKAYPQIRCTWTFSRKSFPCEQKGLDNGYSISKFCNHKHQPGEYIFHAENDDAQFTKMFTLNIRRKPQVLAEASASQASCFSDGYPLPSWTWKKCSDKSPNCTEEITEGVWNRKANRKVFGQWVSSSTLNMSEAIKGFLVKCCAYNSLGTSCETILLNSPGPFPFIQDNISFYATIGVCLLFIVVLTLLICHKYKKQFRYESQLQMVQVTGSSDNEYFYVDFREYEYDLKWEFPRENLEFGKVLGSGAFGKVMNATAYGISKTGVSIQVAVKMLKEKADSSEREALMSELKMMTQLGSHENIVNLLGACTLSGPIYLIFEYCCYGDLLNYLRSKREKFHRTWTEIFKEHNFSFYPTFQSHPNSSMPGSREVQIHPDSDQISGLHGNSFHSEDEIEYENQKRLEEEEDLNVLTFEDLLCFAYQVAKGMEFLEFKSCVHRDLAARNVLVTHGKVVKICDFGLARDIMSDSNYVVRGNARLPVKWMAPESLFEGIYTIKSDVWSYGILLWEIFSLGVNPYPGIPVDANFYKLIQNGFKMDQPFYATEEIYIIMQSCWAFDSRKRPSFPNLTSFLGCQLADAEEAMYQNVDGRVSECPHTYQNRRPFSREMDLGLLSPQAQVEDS
Experiment: LabChip (Caliper) kinase assay, FLT3
Assay type: biochemical
Conditions: FLT3; compound at 100 nM; read-out: remaining kinase activity (in %) / percentage of inhibition
Protocol: The analysis of kinase activity described here was performed using LabChip (Caliper Life Sciences), specifically the Caliper LC3000 and the EZ Reader II instruments. The kinase assay used measures the conversion of a fluorescent peptide (substrate) to a phosphorylated product. The reaction mixture, in a microplate well, is introduced by a capillary in a chip where the non-phosphorylated substrate and the phosphorylated product are separated by fluorescence induced by laser. […]

[
  {
    "COMPOUND": "C[C@@H]1O[C@@H](n2c3ccccc3c3c4c(c5c6ccccc6[nH]c5c32)CNC4=O)C[C@@H](O)[C@H]1O [formula (XIV), N^13-1′-β-L-digitoxosyl-k252c]",
    "inhibition at 0.1 µM (%)": 79
  },
  {
    "COMPOUND": "C[C@@H]1O[C@@H](n2c3ccccc3c3c4c(c5c6ccccc6[nH]c5c32)C(=O)NC4=O)C[C@@H](O)[C@H]1O",
    "inhibition at 0.1 µM (%)": 95
  },
  {
    "COMPOUND": "C[C@@H]1O[C@@H](n2c3ccccc3c3c4c(c5c6ccccc6[nH]c5c32)C(=O)NC4=O)C[C@H](O)[C@H]1O",
    "inhibition at 0.1 µM (%)": 81
  }
]

---

biological target: JAK2 (Homo sapiens, UniProt O60674); assay: LabChip (Caliper) kinase assay, JAK2; assay type: biochemical; conditions: JAK2; compound at 10 nM; read-out: remaining kinase activity (in %) / percentage of inhibition
Sequence (O60674 whole entry, species assumed): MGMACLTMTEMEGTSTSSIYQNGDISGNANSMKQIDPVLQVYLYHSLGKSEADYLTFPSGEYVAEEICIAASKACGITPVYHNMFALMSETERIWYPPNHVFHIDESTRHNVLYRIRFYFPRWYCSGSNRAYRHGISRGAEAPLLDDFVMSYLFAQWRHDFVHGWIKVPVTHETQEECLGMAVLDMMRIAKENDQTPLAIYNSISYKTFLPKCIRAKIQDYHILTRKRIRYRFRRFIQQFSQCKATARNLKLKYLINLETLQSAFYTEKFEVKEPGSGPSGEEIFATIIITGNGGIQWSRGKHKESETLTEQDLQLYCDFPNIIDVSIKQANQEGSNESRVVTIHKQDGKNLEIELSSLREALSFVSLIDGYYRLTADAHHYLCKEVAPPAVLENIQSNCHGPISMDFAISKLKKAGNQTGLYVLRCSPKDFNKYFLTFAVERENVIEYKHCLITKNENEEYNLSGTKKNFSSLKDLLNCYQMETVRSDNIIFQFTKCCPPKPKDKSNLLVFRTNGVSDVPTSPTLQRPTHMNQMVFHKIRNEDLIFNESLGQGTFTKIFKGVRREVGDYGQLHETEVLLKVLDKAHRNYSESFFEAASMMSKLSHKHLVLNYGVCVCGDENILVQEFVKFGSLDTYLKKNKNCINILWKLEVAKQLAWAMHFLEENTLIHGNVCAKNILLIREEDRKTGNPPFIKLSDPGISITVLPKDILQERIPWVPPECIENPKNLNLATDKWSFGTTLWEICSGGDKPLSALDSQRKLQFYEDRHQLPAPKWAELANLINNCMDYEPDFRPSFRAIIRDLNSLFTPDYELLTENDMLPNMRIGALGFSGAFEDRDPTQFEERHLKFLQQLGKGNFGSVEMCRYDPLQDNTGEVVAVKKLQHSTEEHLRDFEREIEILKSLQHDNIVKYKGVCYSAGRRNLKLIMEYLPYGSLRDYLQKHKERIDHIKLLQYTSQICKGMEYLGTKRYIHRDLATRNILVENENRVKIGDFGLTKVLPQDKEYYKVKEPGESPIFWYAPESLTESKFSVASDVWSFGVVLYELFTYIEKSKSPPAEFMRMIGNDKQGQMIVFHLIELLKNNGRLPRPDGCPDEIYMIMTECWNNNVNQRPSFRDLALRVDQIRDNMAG
Field: label. Allowed values: Condition met (inhibition at 0.01 µM < 20%) or Condition not met (inhibition at 0.01 µM >= 20%).

[
  {
    "COMPOUND": "C[C@@H]1O[C@@H](n2c3ccccc3c3c4c(c5c6ccccc6[nH]c5c32)CNC4=O)C[C@@H](O)[C@H]1O [formula (XIV), N^13-1′-β-L-digitoxosyl-k252c]",
    "ASSIGNED_CATEGORY": "Condition met"
  },
  {
    "COMPOUND": "C[C@H]1O[C@@H](n2c3ccccc3c3c4c(c5c6ccccc6[nH]c5c32)C(=O)NC4=O)C[C@@H](O)[C@@H]1O [formula (VI), N^13-1′-β-D-olivosylarcyriaflavin]",
    "ASSIGNED_CATEGORY": "Condition not met"
  },
  {
    "COMPOUND": "C[C@@H]1O[C@@H](n2c3ccccc3c3c4c(c5c6ccccc6[nH]c5c32)C(=O)NC4=O)C[C@@H](O)[C@H]1O [formula (V), N^13-1′-β-L-digitoxosylarcyriaflavin]",
    "ASSIGNED_CATEGORY": "Condition not met"
  },
  {
    "COMPOUND": "C[C@@H]1O[C@@H](n2c3ccccc3c3c4c(c5c6ccccc6[nH]c5c32)CNC4=O)[C@H](O)[C@H](O)[C@H]1O [formula (XII), N^13-1′-β-L-rhamnosyl-k252c]",
    "ASSIGNED_CATEGORY": "Condition met"
  },
  {
    "COMPOUND": "C[C@@H]1O[C@@H](n2c3ccccc3c3c4c(c5c6ccccc6[nH]c5c32)C(=O)NC4=O)C[C@H](O)[C@H]1O [formula (IV), N^13-1′-β-L-olivosylarcyriaflavin]",
    "ASSIGNED_CATEGORY": "Condition met"
  }
]

---

Please consider the recorded IC50 for FGFR1 (Homo sapiens) in what follows.

[
  {
    "COMPOUND": "C[C@]12O[C@H](C[C@@H](O)[C@H]1O)n1c3ccccc3c3c4c(c5c6ccccc6n2c5c31)C(=O)NC4=O",
    "IC50": "> 10 nM"
  },
  {
    "COMPOUND": "C[C@]12O[C@H](C[C@@H](O)[C@H]1O)n1c3ccccc3c3c4c(c5c6ccccc6n2c5c31)CNC4=O",
    "IC50": "> 100 nM"
  },
  {
    "COMPOUND": "C[C@]12O[C@H](C[C@H](O)[C@H]1O)n1c3ccccc3c3c4c(c5c6ccccc6n2c5c31)CNC4=O [formula (XVII), N^12-5′(S)-N^13-1′-(R)-L-olivosyl-k252c]",
    "IC50": "> 10 nM"
  }
]
